Tested on: YSK1
Construct: gene STK25
condition_description: concentration: 1 μM, replicates: in singlicate; n = 1;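 note: KINOMEscan kinase panel screen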
measure: %Inh (%)
Just the number in %, nothing appended.

See these solved cases before continuing.
Known value: YSK1 %Inh of the molecule "Cc1cc(N2Cc3ccccc3C2)nc(Nc2ccc(S(=O)(=O)N3CCOCC3)cc2)n1.Cl" equals 0

Assay YSK1, sample "Cc1cc(NCC(c2ccccc2)c2ccccc2)nc(NCc2ccc(C(F)(F)F)cc2)n1" , %Inh read: 0

Consider the record given below.
Considering "COc1ccc2nc(-c3cccc(C)n3)nc(Nc3ccncc3)c2c1" , its %Inh with YSK1 was recorded as 0

###

System: RSK1(Kin.Dom.2-C-terminal)
Construct: gene RPS6KA1
condition_description: concentration: 1 μM, replicates: in singlicate; n = 1
Measured %Inh accompanies every entry in the list below.
Write the number in % without appending the unit.

Field: example entries. Status: answers known.
Reported %Inh of "CS(=O)(=O)c1ccc(-c2nc3n(c2-c2ccncc2)CCC3)cc1" : 0

So for CCCc1ccc(S(=O)(=O)NC2CCN(c3ccnc(Nc4ccc(F)cc4)n3)C2)cc1 (stereo not shown) , the logged %Inh turned out to be 0

Data point: "Cc1cccc(-c2cc(Nc3ccncc3)c3ccccc3n2)n1" ; %Inh = 35

Now turn to the next molecule.
The reported %Inh of the molecule "Cn1ccc2ncnc(Oc3ccc(NC(=O)Nc4ccccc4)cc3)c21" was 0

###

System: GSK3B
condition_description: concentration: 1 μM, replicates: in singlicate; n = 1
measure: %Inh (%)
Your answer is read as %, so omit the unit and give the number.

Some solved entries appear below for comparison.
Entry "Cc1cccc(-c2nc(-c3ccc(S(C)(=O)=O)cc3)sc2-c2ccnc(NCCc3ccccc3)c2)c1" , %Inh reported as 0

response.value for "CS(=O)(=O)c1ccc(-c2c(-c3ncn[nH]3)sc(N3CCOCC3)c2C#N)cc1" (field: %Inh) = 24

The recorded %Inh for entry CC1=C(C(=O)Nc2cc3cn[nH]c3cc2F)C(c2ccc(C(F)(F)F)cc2)CC(=O)N1 (centres unmarked) [GSK429286] equals 24

Documented %Inh of Cc1cc(-c2ccc3c(c2)CC[C@@H](N[C@@H](C)c2ccccc2)C3)cnc1N.Cl [GW412617] : 6

Entry COc1ccccc1CNC(=O)c1cc(C(=O)c2ccccc2C)c[nH]1 [GSK364507] — recorded %Inh = 0

***
// recorded %Inh for Cc1cccc(-c2nc(Nc3ccncc3)c3ccccc3n2)n1 [GW855857] : 0

%Inh recorded for this compound, Cl.O=C(Nc1cccc(-c2nn3ncccc3c2-c2ccnc(Nc3cccnc3)n2)c1)c1c(F)cccc1F [GSK312879] , is 25

Lab note: Cc1cccc(-c2nc(Nc3cccc(C(N)=O)c3)c3ccccc3n2)n1 [GW876019] gave %Inh of 12

###

System: DMPK
condition_description: concentration: 1 μM, replicates: in singlicate; n = 1
Measured %Inh, listed per entry.
Put down the number, then write its unit next to it.

Answered examples (4):
Memo: "O=S(=O)(c1ccc(-c2ccnc3[nH]ccc23)cc1)N1CCCC1" , reported %Inh: 3%

Item: "Cc1cccc(-c2nc(Nc3ccc4[nH]ncc4c3)c3ccccc3n2)n1" | %Inh: 4%

Lab note: "CC(C)(C)c1ccc(C(=O)Nc2cn3cc(-c4cccnc4)ccc3n2)cc1" gave %Inh of 5%

The molecule listed as "COc1cc2nccc(Nc3ccc(NC(=O)c4ccc(C)cc4)c(O)c3)c2cc1OC.Cl" shows %Inh equal to 0%

Next:
Lab note: CCCc1ccc(S(=O)(=O)NC2CCN(c3ccnc(Nc4ccc(F)cc4)n3)C2)cc1 (centres unmarked) gave %Inh of 0%

The recorded %Inh for entry "Cc1ccc(NC(=O)Nc2cc(C(C)(C)C)nn2-c2ccccc2)cc1" equals 3%

###

Tested on: BTK
condition_description: concentration: 1 μM, replicates: in singlicate; n = 1
measure: %Inh (%)
Write the number in % without appending the unit.

%Inh reading for "Cl.NC(=O)c1cccc(Nc2nccc(Nc3ccc(Oc4cccc(Cl)c4)c(Cl)c3)n2)c1" : 0

Measured %Inh of "Cc1cccc(-c2nc(C)cc(Nc3ccncc3)n2)n1" : 0

Lab note: "COc1cc2ncnc(Nc3ccc4nc(-c5ccccc5)[nH]c4c3)c2cc1OC.Cl" gave %Inh of 0

// field: %Inh; key: CC1=C(C(=O)Nc2cc3cn[nH]c3cc2F)C(c2ccc(C(F)(F)F)cc2)CC(=O)N1 (centres unmarked) ; value = 0

Next item in the queue.
Sample O=C(Nc1ccc2c(c1)OCO2)NC1CCN(c2ccnc(Nc3ccc(F)cc3)n2)C1 (centres unmarked) ; %Inh observed: 0

###

Tested on: PIM1
condition_description: concentration: 1 μM, replicates: in singlicate; n = 1
measure: %Inh (%)
Just the number in %, nothing appended.

Here's what some known entries look like.
%Inh reading for COc1ccc(CNC(=O)NC2CCN(c3ccnc(Nc4cc(OC)c(OC)c(OC)c4)n3)C2)cc1 (stereo not shown) : 7

For record "COc1ccc(Nc2nccc(-c3cccc(NC(=O)c4cc5cc(F)ccc5[nH]4)c3)n2)cc1" the listed %Inh is 36

Short answer for "Cc1c(O)cccc1Nc1ccnc2ccc(C(F)(F)F)cc12.Cl" : %Inh was 8

Summary for this compound, "Cc1cccc(-c2nc(Nc3ccc4[nH]ncc4c3)c3ccccc3n2)n1" : %Inh is 5

Entry "Cc1cccc(-c2cc(Nc3ccncc3)c3ccccc3n2)n1" ; %Inh = 23

// %Inh lookup, compound = "COc1ccc2nc(-c3cccc(C)n3)nc(Nc3ccncc3)c2c1" , result: 0

// %Inh lookup, compound = "Nc1nc(-c2nccs2)c(-c2ccnc3ccccc23)s1" , result: 9

Consider "Clc1cc(Cl)cc(Nc2ccnc(Nc3cc(Cl)cc(Cl)c3)n2)c1" . Its measured %Inh is 20

---
response.value for "CCn1c(-c2ccccn2)nc2cnccc21" (field: %Inh) = 0

Summary for this compound, "Cl.c1ccc(-c2n[nH]cc2-c2ccnc(-c3ccc(CN4CCOCC4)cc3)c2)nc1" : %Inh is 13

The compound identified as "Cc1ccc(C(=O)Nc2ccc(Nc3ccnc4cc(-c5ccccn5)ccc34)cc2O)cc1.Cl" registered its %Inh at 16

So for "Fc1cccc(COc2nnc(-c3ccc4c(c3)CCO4)o2)c1" , the logged %Inh turned out to be 11

// sample COc1cccc(NC(=O)NC2CCN(c3ccnc(Nc4ccc(F)cc4)n3)C2)c1 (stereo not shown) , its %Inh was 9

In plain terms, COc1cc(Nc2nccc(N3CCC(NC(=O)Nc4cc(C)ccc4C)C3)n2)cc(OC)c1OC (stereo not shown) has a documented %Inh of 0

Record Cc1nnc(-c2ccc3occ(-c4ccc(S(C)=O)cc4)c3c2)[nH]1 (stereo not shown) , field %Inh: 32

Input "CS(=O)(=O)c1ccc(-c2c(-c3ncn[nH]3)sc(N3CCOCC3)c2C#N)cc1" . Output %Inh: 0

###

# reported %Inh; entries follow
Tested on: CSNK2A2
condition_description: concentration: 1 μM, replicates: in singlicate; n = 1
Provide only the numeric value, understood in %.

// worked examples, %Inh included
Known value: CSNK2A2 %Inh of the molecule "Cc1ccc(NC(=O)Nc2cccc(Cl)c2)cc1-c1ccc(C(=O)Nc2ccncc2)cc1" equals 0

Kindly note: CSNK2A2, "Cc1cc(-c2ccc3c(c2)CC[C@@H](N[C@@H](C)c2ccccc2)C3)cnc1N.Cl" , %Inh value reported: 10

The reported %Inh value, CSNK2A2, for "Cc1cccc(-c2nc(C)cc(Nc3ccncc3)n2)n1" reads 22

Item "Fc1cc(Cl)ccc1Nc1ccnc2cc(I)ccc12" was tested on CSNK2A2; the reported %Inh is 0

Lab note: next molecule to report on.
# lookup: "COc1ccc2nc(-c3cccc(C)n3)nc(Nc3ccncc3)c2c1" on CSNK2A2, %Inh = 0

###

Tested on: FGFR3
condition_description: concentration: 1 μM, replicates: in singlicate; n = 1
measure: %Inh

Quick note, %Inh for "Cc1csc(-c2nc(Nc3ccncc3)c3ccccc3n2)n1" landed at 6%

Note to self: %Inh recorded for "O=C1NC(=O)C(N2CCc3ccccc32)=C1c1ccccc1Cl" was 33%

CCCc1ccc(S(=O)(=O)NC2CCN(c3ccnc(Nc4ccc(F)cc4)n3)C2)cc1 (stereo not shown) has a reported %Inh of 2%

response.value for Cc1nnc(-c2ccc3occ(-c4ccc(S(C)=O)cc4)c3c2)[nH]1 (stereo not shown) (field: %Inh) = 0%

Reported %Inh ( "CC(C)(C)c1ccc(C(=O)Nc2cn3cc(Cl)ccc3n2)cc1" ) = 0%

New cases:
Given item "Cn1cncc1-c1ccc2ncnc(Nc3ccc(OCc4ccccc4)cc3)c2c1" , the value recorded as its %Inh is 31%

response.value for "Fc1cccc(COc2nnc(-c3ccc4c(c3)CCO4)o2)c1" (field: %Inh) = 0%

For record "Cc1cccc(-c2nc(C)cc(Nc3ccncc3)n2)n1" the listed %Inh is 16%

Lab note: measured %Inh of "COc1ccc(C2=C(Nc3cccc(C(=O)O)c3)C(=O)NC2=O)cc1" was 14%

Recorded %Inh (compound "CS(=O)(=O)c1ccc(-c2nc3n(c2-c2ccncc2)CCC3)cc1" ): 2%
